Assay: in vivo
Conditions: female, CB-17 SCID, mouse, blood, po, 100 mg/kg, AUClast, single dose
property-name: AUC(0-t) (ng·h/mL)
Response body: numeric value in ng·h/mL, unit text excluded.

# input compound: CS(=O)(=O)CCNCc1ccc(-c2ccc3ncnc(Nc4ccc(OCc5cccc(F)c5)c(Cl)c4)c3c2)o1 ; wanted: its AUC(0-t)
46700

###

Assay: in vivo
Details: female, CB-17 SCID, mouse, liver, oral, 200 mg/kg, AUClast, single dose
property-name: AUC(0-t) (µg·h/mL)
Give just the number in µg·h/mL; leave the unit off.

For CS(=O)(=O)CCNCc1ccc(-c2ccc3ncnc(Nc4ccc(OCc5cccc(F)c5)c(Cl)c4)c3c2)o1 , what is its reported AUC(0-t)?
1050

Origin of measurements: paper PMC4646457
